# TEST TARGET: T1, USP38, Q8NB14
# T1 chain: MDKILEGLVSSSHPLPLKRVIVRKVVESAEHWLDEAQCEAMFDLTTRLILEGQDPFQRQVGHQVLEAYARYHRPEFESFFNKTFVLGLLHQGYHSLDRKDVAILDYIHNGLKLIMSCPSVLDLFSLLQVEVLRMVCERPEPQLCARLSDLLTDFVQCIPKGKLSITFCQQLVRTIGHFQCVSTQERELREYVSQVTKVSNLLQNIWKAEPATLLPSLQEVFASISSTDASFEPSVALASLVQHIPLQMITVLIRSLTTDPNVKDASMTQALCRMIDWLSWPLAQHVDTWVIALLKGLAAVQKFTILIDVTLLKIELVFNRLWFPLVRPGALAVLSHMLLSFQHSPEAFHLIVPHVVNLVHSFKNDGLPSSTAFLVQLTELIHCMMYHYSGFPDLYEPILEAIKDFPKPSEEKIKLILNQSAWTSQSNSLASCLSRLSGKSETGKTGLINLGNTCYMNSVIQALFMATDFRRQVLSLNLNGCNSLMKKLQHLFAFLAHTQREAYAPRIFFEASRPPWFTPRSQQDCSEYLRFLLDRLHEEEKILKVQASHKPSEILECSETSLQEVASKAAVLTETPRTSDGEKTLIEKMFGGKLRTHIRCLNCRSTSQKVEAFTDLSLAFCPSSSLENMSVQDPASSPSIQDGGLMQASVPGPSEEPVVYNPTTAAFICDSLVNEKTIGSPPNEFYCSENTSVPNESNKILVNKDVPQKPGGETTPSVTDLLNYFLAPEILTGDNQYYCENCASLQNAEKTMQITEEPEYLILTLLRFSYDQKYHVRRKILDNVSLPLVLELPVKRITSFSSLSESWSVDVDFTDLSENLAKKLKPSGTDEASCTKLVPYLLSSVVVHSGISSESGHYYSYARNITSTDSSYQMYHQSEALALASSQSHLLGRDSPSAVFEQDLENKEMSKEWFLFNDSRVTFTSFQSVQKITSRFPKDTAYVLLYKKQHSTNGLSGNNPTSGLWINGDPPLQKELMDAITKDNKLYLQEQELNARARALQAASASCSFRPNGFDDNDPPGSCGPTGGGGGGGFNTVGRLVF
# EXPERIMENT DESCRIPTION: median log2 fold change of GCK-ALFA target abundance (FLAG IP / Myc IP barcode read proportion) (log2 ratio); each designed protein is fused to an ALFA-tag nanobody in HEK293 cells to bring the named protein to FLAG-tagged glucokinase (GCK); Myc marks an untargeted standard; higher = target protein stabilised (more abundant)
# CONDITION NOTES: target protein: 3xFLAG-MCP-GCK-ALFA reporter; HEK293 landing pad (RPLP)

- BINDER: "usp_38_diff_out_24_27_497 (protein) EEEKKEKLEKLIKKFEEILKLAKEAVGADLATRIRLSREIDELLEEARKLAEELGIEEVKKIVTEVAVKASIVLSGSEEMEEAIEEIEKLIEEAKKLLEE"
  median log2 fold change: 0.276
- BINDER: "usp_38_diff_out_3_65_530 (protein) KVEEKLKEAEEHLEKAEELVEELRRLTEEDPTLTADEVVEMLDKIDDELVAAGKAIEEAKKLNPTPEQKKKIEELEKRLDELIDRRIEAAEEAFLRVGEA"
  median log2 fold change: 0.137
